Taken from patent US20100272750A1.

biological target: HLA A3002 (human); experiment: 125I-probe competition, purified HLA
metric_name: IC50 (nM)

binder | recorded_measurement
KSAIVTLTY (modifications not checked) [HPV16.E2.329] | 6
YYMTDAGTW (modifications not checked) [HPV18.E2.142] | 2150
QVDYYGLYY (modifications not checked) [HPV16.E2.151] | 160
GYNTFYIEF (modifications not checked) [HPV18.E2.168] | 1260
